The reported numbers originate from the Human Domainome abundance scans (Beltran et al. 2025).

B1: Nuclear receptor subfamily 4 group A member 2, residues 260 to 336; numbered along this chain, P43354 (parent)
chain: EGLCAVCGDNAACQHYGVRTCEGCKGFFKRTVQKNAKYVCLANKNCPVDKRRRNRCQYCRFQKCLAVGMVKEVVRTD

Variants of: B1
Test name: abundance fitness (aPCA) (normalised: wild type 0, dead -1); higher = more abundant; growth selection in yeast, the domain comes from the species named
Cond: Homo sapiens
Respond with yes for abundance fitness values of -0.1 and above, no for values below.

Hi, just wondering whether V67K shows abundance fitness of -0.1 or higher.
yes

Confirm if abundance fitness reported for the variant R52G is -0.1 or above.
yes

Can K71I be said to have abundance fitness at or above -0.1?
no

Please check the record R53E and state if its abundance fitness is at or above -0.1.
yes

Confirm if abundance fitness reported for the variant D77G is -0.1 or above.
yes

Would you say Q62K shows abundance fitness at minimum -0.1?
yes

Item V74L with abundance fitness of -0.1 or above?
yes

Entry V73G : is its abundance fitness no less than -0.1?
yes

Dear colleague, could you confirm whether C64I has abundance fitness at or above -0.1?
no

Please check the record R53M and state if its abundance fitness is at or above -0.1.
no

Please indicate if the recorded abundance fitness for C46G meets or exceeds -0.1.
no

Quick check: does M69V have abundance fitness greater than or equal to -0.1?
no

Determine whether measured abundance fitness meets or exceeds -0.1 for Q62L
no

Given V70I , state whether its abundance fitness is at least -0.1.
yes

Is it the case that C56G has abundance fitness reaching or exceeding -0.1?
no

Please indicate if the recorded abundance fitness for K44D meets or exceeds -0.1.
yes

Is it the case that G68L has abundance fitness reaching or exceeding -0.1?
no

Is abundance fitness for R51Y at or above -0.1?
no

Reported abundance fitness reaches at least -0.1 for R55S ?
no

Is abundance fitness for A36K at or above -0.1?
no

Say whether Q33R shows abundance fitness of -0.1 or more.
no

Can F28H be said to have abundance fitness at or above -0.1?
no
